Below, each entry is listed with its recorded NO formation.
Target: Nitric oxide synthase, inducible (Mus musculus) (UniProt P29477)
Sequence (P29477 whole entry): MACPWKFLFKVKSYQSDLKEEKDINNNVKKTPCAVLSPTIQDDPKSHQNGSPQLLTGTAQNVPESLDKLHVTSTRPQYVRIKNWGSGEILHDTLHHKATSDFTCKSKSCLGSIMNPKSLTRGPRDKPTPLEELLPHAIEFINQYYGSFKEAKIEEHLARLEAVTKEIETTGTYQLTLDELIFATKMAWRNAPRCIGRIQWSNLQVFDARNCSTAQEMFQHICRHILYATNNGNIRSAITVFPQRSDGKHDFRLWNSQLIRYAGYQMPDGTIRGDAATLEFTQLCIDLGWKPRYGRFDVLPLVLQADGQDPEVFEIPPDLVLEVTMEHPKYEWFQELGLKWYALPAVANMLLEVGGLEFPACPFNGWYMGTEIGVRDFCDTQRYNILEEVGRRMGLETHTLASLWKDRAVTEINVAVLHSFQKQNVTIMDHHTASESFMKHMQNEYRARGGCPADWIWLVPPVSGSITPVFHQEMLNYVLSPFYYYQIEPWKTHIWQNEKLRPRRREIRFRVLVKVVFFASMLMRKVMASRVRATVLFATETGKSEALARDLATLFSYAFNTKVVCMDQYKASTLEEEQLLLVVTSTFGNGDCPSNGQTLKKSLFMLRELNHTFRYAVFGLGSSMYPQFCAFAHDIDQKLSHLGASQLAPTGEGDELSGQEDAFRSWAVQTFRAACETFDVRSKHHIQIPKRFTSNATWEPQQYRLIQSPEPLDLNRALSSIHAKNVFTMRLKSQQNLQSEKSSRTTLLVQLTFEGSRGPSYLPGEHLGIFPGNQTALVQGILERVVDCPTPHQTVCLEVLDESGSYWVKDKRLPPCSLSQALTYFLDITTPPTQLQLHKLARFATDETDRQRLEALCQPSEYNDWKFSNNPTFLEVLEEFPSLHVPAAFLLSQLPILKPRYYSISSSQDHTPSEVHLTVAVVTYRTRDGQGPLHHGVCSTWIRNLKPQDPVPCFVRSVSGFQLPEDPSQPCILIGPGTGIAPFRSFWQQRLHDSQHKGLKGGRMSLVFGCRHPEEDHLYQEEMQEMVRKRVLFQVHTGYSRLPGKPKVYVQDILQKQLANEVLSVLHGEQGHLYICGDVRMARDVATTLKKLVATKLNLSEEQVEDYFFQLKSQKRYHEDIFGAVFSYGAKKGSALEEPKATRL
Test: Evaluation as substrate of Inducible nitric oxide synthase by hemoglobin assay using NOHA as control
Format: functional

# Smiles data, NO formation
records = [
    ("CCCCN/C(N)=N/O", "42%"),
    ("CCCCN(C)C(=N)NO", "< 0.5%"),
    ("N/C(=N\\O)N1CCCC1", "< 0.5%"),
    ("N/C(=N/CC1CC1)NO", "< 0.5%"),
    ("C/C=C/CN=C(N)N", "< 0.5%"),
    ("N/C(=N\\O)N1CCOCC1", "< 0.5%"),
    ("CCCCN=C(N)N", "6%"),
]
